- System: human P-glycoprotein HEK cells (HEK-P-gp)
- measurement.protocol: H3K27me3 immunocytochemistry assay in P-gp expressing HEK293T cells, with or without elacridar
- Assay type: cell-based
- test.parameters: Homo sapiens, HEK293, with 250 nM elacridar; 4 days compound treatment; read-out: IC50, inhibitory activity on human P-glycoprotein HEK cells (HEK-P-gp) pretreated with elacridar
pIC50: −log10 of the molar value.
readout.label: pIC50

Example entries and their recorded answers appear below.
compound | pIC50
COc1nc(C)ccc1-c1cc2c(n3cnnc13)NCc1c(F)ccc3c1[C@H](CO3)CO2 | 6.30 to 7.00
Cc1ncc(-c2cc3c(n4cnnc24)NCc2c(F)ccc4c2[C@@H](CO4)CO3)c(C)n1 | > 7.60
Cn1nccc1-c1cc2c(n3cc(C#N)nc13)NCc1c(F)ccc3c1[C@@H](CO3)CO2 | 7.30 to 7.60

Report pIC50 for each item below.
1. Fc1ccc2c3c1CNc1c(cc(-c4ccc(N5CCOCC5)nc4)c4nncn14)OC[C@H]3CO2
2. Cn1ncc(C#N)c1-c1cc2c(n3cnnc13)NCc1c(F)ccc3c1C(CO3)CO2 (stereo not drawn)
3. Cc1ncccc1-c1cc2c(n3cc(C(=O)O)nc13)NCc1c(F)ccc3c1[C@@H](CO3)CO2
4. Cc1nc(C2CC2)ncc1-c1cc2c(n3cnnc13)NCc1c(F)ccc3c1[C@@H](CO3)CO2
5. Cc1ncc(-c2cc3c(n4cnnc24)NCc2c(F)cccc2CCO3)c(C)n1

Given back:
["6.30 to 7.00", "6.30 to 7.00", "< 6.30", "> 7.60", "< 6.30"]

* * *

- System: human P-glycoprotein HEK cells (HEK-P-gp)
- measurement.protocol: H3K27me3 immunocytochemistry assay in P-gp expressing HEK293T cells, with or without elacridar
- Format: cell-based
- test.parameters: Homo sapiens, HEK293, with 250 nM elacridar; 4 days compound treatment; read-out: IC50, inhibitory activity on human P-glycoprotein HEK cells (HEK-P-gp) pretreated with elacridar
readout.label: IC50

Example entries and their recorded answers appear below.
compound | IC50
Cc1cn(-c2cc3c(n4cnnc24)NCc2c(F)ccc4c2[C@@H](CO4)CO3)cn1 [Compound 15] | < 0.025 µM
Cc1ncc(-c2cc3c(n4cnnc24)NCc2c(F)ccc4c2[C@@H](CO4)CO3)cc1N [Compound 179] | 0.1 to 0.5 µM
Fc1ccc2c3c1CNc1c(cc(-c4cnco4)c4nncn14)OC[C@@H]3CO2 [Compound 188] | 0.1 to 0.5 µM

Okay, next one:
Asked: Report IC50 for Fc1cncnc1-c1cc2c(n3cnnc13)NCc1c(F)ccc3c1[C@@H](CO3)CO2 [Compound 164] tested on human P-glycoprotein HEK cells (HEK-P-gp).
Given back: < 0.025 µM
